# experimentalDetails: Pharmacokinetics after iv and oral dosing
# Assay type: in vivo, BALB/c mice
# measurementSetup: mouse, plasma; iv 2 mg/kg, male BALB/c mice; read-out: t1/2z (converted)
testReadout: half-life (h)
Answers are plain numbers, in h.

I'd like to know its half-life. The compound in question is Cc1cc(C#N)cc(C)c1Oc1nc(NC2CCN(Cc3ccc(S(N)(=O)=O)cc3)CC2)nc2ccsc12
2.18

* * *

# experimentalDetails: Pharmacokinetics after iv and oral dosing
# Format: in vivo, BALB/c mice
# measurementSetup: mouse, plasma; po 120 mg/kg, male BALB/c mice
testReadout: AUC(0-t) (ng·h/mL)
Numbers only, in ng·h/mL.

I'd like to know its AUC(0-t). The compound in question is Cc1cc(C#N)cc(C)c1Oc1nc(NC2CCN(Cc3ccc(S(N)(=O)=O)cc3)CC2)nc2ccsc12 [K-5a2]
2460
